System: Pseudomonas aeruginosa strain ATCC 27853
assay details: Antibacterial activity evaluation test (MIC), broth microdilution, strain ATCC 27853
Type: cell-based
conditions used: Pseudomonas aeruginosa, ATCC27853, read-out: MIC Pseudomonas aeruginosa strain ATCC 27853
Quick reference: MIC of the listed items.

- compound: "CO[C@@H](CNC(=O)/C(=N/NC(N)=O)c1ccc(O)c(O)c1Cl)CS[C@]1(C(=O)O)CN2C(=O)[C@@H](NC(=O)/C(=N\\OC(C)(C)C(=O)O)c3csc(N)n3)[C@H]2S1"
  target entity: "Pseudomonas aeruginosa strain ATCC 27853"
  units symbol: "µg/mL"
  value relation sign: "="
  MIC: 0.5
- compound: "CC(C)(O/N=C(\\C(=O)N[C@@H]1C(=O)N2C[C@](SCCNC(=O)/C(=N\\NC(N)=O)c3ccc(O)c(O)c3Cl)(C(=O)O)S[C@H]12)c1csc(N)n1)C(=O)O"
  target entity: "Pseudomonas aeruginosa strain ATCC 27853"
  units symbol: "µg/mL"
  value relation sign: "≤"
  MIC: 0.0625
- compound: "CC(C)(O/N=C(\\C(=O)N[C@@H]1C(=O)N2C[C@](SCCNC(=O)/C(=N\\NC(N)=O)c3cc(O)c(O)cc3Cl)(C(=O)O)S[C@H]12)c1csc(N)n1)C(=O)O"
  target entity: "Pseudomonas aeruginosa strain ATCC 27853"
  units symbol: "µg/mL"
  value relation sign: "="
  MIC: 0.5
- compound: "COC[C@H](CS[C@]1(C(=O)O)CN2C(=O)[C@@H](NC(=O)/C(=N\\OC(C)(C)C(=O)O)c3csc(N)n3)C2S1)NC(=O)c1ccc(O)c(O)c1Cl (some centres unmarked)"
  target entity: "Pseudomonas aeruginosa strain ATCC 27853"
  units symbol: "µg/mL"
  value relation sign: "="
  MIC: 0.125
- compound: "COC[C@H](CS[C@]1(C(=O)O)CN2C(=O)[C@@H](NC(=O)/C(=N\\OC(C)(C)C(=O)O)c3csc(N)n3)[C@H]2S1)NC(=O)/C(=N\\NC(N)=O)c1ccc(O)c(O)c1Cl"
  target entity: "Pseudomonas aeruginosa strain ATCC 27853"
  units symbol: "µg/mL"
  value relation sign: "≤"
  MIC: 0.0625

###

A collection of compounds and their measured MIC
Tested on: Pseudomonas aeruginosa strain ATCC 27853
assay details: Antibacterial activity evaluation test (MIC), broth microdilution, strain ATCC 27853
Assay type: cell-based
conditions used: Pseudomonas aeruginosa, ATCC27853, read-out: MIC Pseudomonas aeruginosa strain ATCC 27853

- compound: "CC(C)(O/N=C(\\C(=O)N[C@@H]1C(=O)N2C[C@](SCCNC(=O)/C(=N/NC(N)=O)c3ccc(O)c(O)c3Cl)(C(=O)O)S[C@H]12)c1csc(N)n1)C(=O)O"
  target entity: "Pseudomonas aeruginosa strain ATCC 27853"
  units symbol: "µg/mL"
  value relation sign: "≤"
  MIC: 0.0625
- compound: "CC(C)(O/N=C(\\C(=O)N[C@@H]1C(=O)N2C[C@](SC[C@H]3COCCN3C(=O)c3ccc(O)c(O)c3Cl)(C(=O)O)SC12)c1csc(N)n1)C(=O)O (some centres unmarked)"
  target entity: "Pseudomonas aeruginosa strain ATCC 27853"
  units symbol: "µg/mL"
  value relation sign: "="
  MIC: 0.5
- compound: "CC(C)(O/N=C(\\C(=O)N[C@@H]1C(=O)N2C[C@](SC3CN(C(=O)C(=NNC(N)=O)c4ccc(O)c(O)c4Cl)C3)(C(=O)O)S[C@H]12)c1csc(N)n1)C(=O)O"
  target entity: "Pseudomonas aeruginosa strain ATCC 27853"
  units symbol: "µg/mL"
  value relation sign: "≤"
  MIC: 0.0625
- compound: "CN/N=C(\\C(=O)NCCS[C@]1(C(=O)O)CN2C(=O)[C@@H](NC(=O)/C(=N\\OC(C)(C)C(=O)O)c3csc(N)n3)[C@H]2S1)c1ccc(O)c(O)c1Cl"
  target entity: "Pseudomonas aeruginosa strain ATCC 27853"
  units symbol: "µg/mL"
  value relation sign: "≤"
  MIC: 0.0625
- compound: "CC(C)(O/N=C(\\C(=O)N[C@@H]1C(=O)N2C[C@](SCCNC(=O)/C(=N\\NC(N)=O)c3ccc(O)c(O)c3)(C(=O)O)S[C@H]12)c1csc(N)n1)C(=O)O"
  target entity: "Pseudomonas aeruginosa strain ATCC 27853"
  units symbol: "µg/mL"
  value relation sign: "="
  MIC: 0.25

Cited source for all entries: patent US11208421B2
